The values you see were collected from the supplement of paper PMC3334620.

target: Ste12 (UniProt P13574); assay: PBM E-score (8-mer binding enrichment) (E-score (-0.5 to 0.5)); higher = stronger / more preferred TF binding; conditions: protein concentration: 200 nM; construct: GST-DNA-binding domain
Sequence (P13574 whole entry, the tested form may be a part): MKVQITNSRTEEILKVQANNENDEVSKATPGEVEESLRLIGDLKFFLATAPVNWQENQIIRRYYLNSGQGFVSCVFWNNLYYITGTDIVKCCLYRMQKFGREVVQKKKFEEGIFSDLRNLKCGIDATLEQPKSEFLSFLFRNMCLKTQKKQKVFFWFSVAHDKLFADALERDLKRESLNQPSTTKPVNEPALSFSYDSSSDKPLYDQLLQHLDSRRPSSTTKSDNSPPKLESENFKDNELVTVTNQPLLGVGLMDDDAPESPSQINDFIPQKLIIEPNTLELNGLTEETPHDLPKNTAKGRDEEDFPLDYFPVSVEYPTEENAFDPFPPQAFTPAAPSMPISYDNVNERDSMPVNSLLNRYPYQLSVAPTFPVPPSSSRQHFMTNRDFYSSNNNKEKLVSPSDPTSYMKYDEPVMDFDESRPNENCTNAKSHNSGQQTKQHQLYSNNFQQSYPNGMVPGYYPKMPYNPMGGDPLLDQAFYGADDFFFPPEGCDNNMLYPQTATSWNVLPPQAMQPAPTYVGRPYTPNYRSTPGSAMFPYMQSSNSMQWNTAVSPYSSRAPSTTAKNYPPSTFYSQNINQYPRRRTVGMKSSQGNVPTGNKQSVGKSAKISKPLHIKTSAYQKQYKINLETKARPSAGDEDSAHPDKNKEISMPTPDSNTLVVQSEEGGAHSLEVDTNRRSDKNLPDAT
In all, about 33,000 sequences were measured (“E-score (-0.5 to 0.5)”: median about -0.01, highest 2% from about 0.26 on). This excerpt belongs to a sample that is enriched for the highest values.
Lab note: anything with PBM E-score at or over 0.1 counts as met; the rest go in not met.

>>> category("CGTTGAAA")
"met"
>>> category("CAAAATAA")
"met"
>>> category("TGTATCAA")
"met"
>>> category("TCCACCCA")
"not met"
>>> category("TTAAATAA")
"met"
>>> category("AATATTAA")
"met"
>>> category("AAAGCGAA")
"met"
>>> category("ATAAATAA")
"met"
>>> category("AGTATCAA")
"met"
>>> category("AAAAATAA")
"met"
>>> category("CAAACACC")
"met"
>>> category("CAAAATAC")
"met"
>>> category("GAAACACA")
"met"
>>> category("ATAAATAG")
"not met"
>>> category("CCCACCCA")
"met"
>>> category("GAAAAGCA")
"not met"
>>> category("TAAACACA")
"met"
>>> category("AAAACGGC")
"met"
>>> category("TACAAACA")
"met"
>>> category("GCCACCCC")
"not met"
>>> category("CAAACGGA")
"not met"
>>> category("CAAACACG")
"met"
>>> category("GAATGAGA")
"not met"
>>> category("GGTTGAAC")
"not met"
>>> category("AACAAGCC")
"not met"
>>> category("ACCTTTGA")
"not met"
>>> category("AAAACACC")
"met"
>>> category("AAAACACA")
"met"
>>> category("GAATGAAA")
"met"
>>> category("AATATCAC")
"met"
>>> category("ATCCTCAA")
"not met"
>>> category("TAATGAAA")
"met"
>>> category("AACACTGG")
"not met"
>>> category("AACAAACA")
"met"
>>> category("AATATCAG")
"not met"
>>> category("GAAACGGA")
"met"

---

biological target: Ste12 (UniProt P13574); experiment: PBM E-score (8-mer binding enrichment) (E-score (-0.5 to 0.5)); higher = stronger / more preferred TF binding; conditions: protein concentration: 200 nM; construct: GST-DNA-binding domain
In all, about 33,000 sequences were measured (“E-score (-0.5 to 0.5)”: median about -0.01, highest 2% from about 0.26 on). The entries come from a sample that favours the highest values as a whole.
Lab note: anything with PBM E-score at or over 0.03 counts as t; the rest go in f.

>>> category("AATACAAC")
"t"
>>> category("CCTGTCGA")
"f"
>>> category("AAGCAATA")
"f"
>>> category("TCAGGTCA")
"f"
>>> category("AAGTTGAC")
"t"
>>> category("AGGCGGGG")
"t"
>>> category("CAGAGCAC")
"t"
>>> category("AATATATG")
"t"
>>> category("AGTATATC")
"f"
>>> category("CTCCCAGA")
"f"
>>> category("ACGTCAAA")
"t"
>>> category("ATGAGACA")
"t"
>>> category("ATTAGGAC")
"f"
>>> category("AAAATCTC")
"t"
>>> category("AGTATATA")
"t"
>>> category("CTGTCAGA")
"f"
>>> category("TTAGGAAA")
"t"
>>> category("AATATATT")
"t"

---

target: Ste12 (UniProt P13574); experiment: PBM E-score (8-mer binding enrichment) (E-score (-0.5 to 0.5)); higher = stronger / more preferred TF binding; conditions: protein concentration: 200 nM; construct: GST-DNA-binding domain
In all, about 33,000 sequences were measured (“E-score (-0.5 to 0.5)”: median about -0.01, highest 2% from about 0.26 on). Shown is part of a subset that was picked to be rich in the highest values.
# Lookup of reported PBM E-score keyed by entry
MEASURE: PBM E-score

>>> reported("ACTGAGCA")
-0.119
>>> reported("CAGCTCCC")
-0.254
>>> reported("GAATAAGC")
-0.0403
>>> reported("GATAAATA")
0.215
>>> reported("ACAAAGAT")
0.0339
>>> reported("GAGATTGA")
0.0793
>>> reported("AGCGCTAG")
-0.0146
>>> reported("AAAAAGAT")
0.271
>>> reported("GCGGGGGA")
-0.143
>>> reported("CCATCAAC")
-0.144
>>> reported("AAAAAGAA")
0.289
>>> reported("CAAAGAAA")
0.214
>>> reported("GATTAAAA")
0.234
>>> reported("ACAAGAAA")
0.28
>>> reported("AAAAGAAT")
0.266
>>> reported("AATTAAAC")
0.241

---

biological target: Ste12 (UniProt P13574); test: PBM E-score (8-mer binding enrichment) (E-score (-0.5 to 0.5)); higher = stronger / more preferred TF binding; conditions: protein concentration: 200 nM; construct: GST-DNA-binding domain
Over roughly 33,000 sequences, “E-score (-0.5 to 0.5)” has its median near -0.01; the highest 2% begin near 0.26. Many of the other results were omitted from the sample, so the highest values are more common in it than they were.
MEASURE: PBM E-score

>>> reported("ATAACATC")
0.0956
>>> reported("TAAATTTA")
0.334
>>> reported("CCAAAAAC")
0.216
>>> reported("ATTTATAA")
0.267
>>> reported("CAAAAACC")
0.128
>>> reported("CCCCATTA")
-0.193
>>> reported("AACTATGG")
-0.0761
>>> reported("CATTTTCC")
0.123
>>> reported("ATTTATAC")
0.195
>>> reported("AGGTTTTC")
0.241
>>> reported("GCTTATTA")
0.0471
>>> reported("TAATTAGA")
0.161
>>> reported("AAAACAGA")
0.295
>>> reported("CCTGTTAC")
0.151
>>> reported("AAAACATC")
0.301
>>> reported("GTTAATAA")
0.0895
>>> reported("TCCACAGA")
0.124
>>> reported("CCTGTTTA")
0.0871
>>> reported("ATAACAGA")
0.115
>>> reported("ATAGTCTC")
0.132
>>> reported("ATTAATAG")
0.283
>>> reported("ACCGCGCG")
0.273
>>> reported("CATTTTAG")
0.267
>>> reported("ATCCGATG")
0.277
>>> reported("AAATTTGC")
0.0182
>>> reported("AAAAGGAA")
0.188
>>> reported("CGAAACAA")
0.349
>>> reported("CAAACATG")
0.179
>>> reported("CCTTATTA")
0.187
>>> reported("ATACGGCG")
0.15
>>> reported("CGCGCGCC")
0.157
>>> reported("ACTGTTTG")
0.188
>>> reported("ACTGTTTC")
0.289
>>> reported("CCCGCGGC")
0.224
>>> reported("GTTTATTA")
0.304
>>> reported("ATGAAAAG")
-0.0787
>>> reported("AGAAAAAC")
0.146
>>> reported("CGCGCGGC")
0.306
>>> reported("ACCATCGC")
0.0245
>>> reported("CACTATGC")
-0.0894
>>> reported("ATACGATC")
0.157
>>> reported("AAAATTTA")
0.085
>>> reported("CGAAACAC")
0.348
>>> reported("CATTTTAC")
0.254
>>> reported("GATTTCCC")
-0.0998
>>> reported("AATTTTAG")
0.105
>>> reported("AAAACATG")
0.324
>>> reported("AATAAGAA")
0.276
>>> reported("AAAAAACC")
0.234
>>> reported("CTTAATAA")
0.232
>>> reported("ACCTCCAC")
-0.0491
>>> reported("CATTTTCA")
0.273
>>> reported("AAAACAGG")
-0.0182
>>> reported("AAATTGAA")
0.185
>>> reported("CGCGCGCA")
0.208
>>> reported("CTCCCGTC")
0.0578
>>> reported("AGAAACAC")
0.121
>>> reported("AATCTCAT")
0.165
>>> reported("AGGCTCGG")
-0.112
>>> reported("AACACATG")
0.128
>>> reported("ACGAAAAC")
0.25
>>> reported("GACTGCCA")
0.107
